Biological target: recombinant mTOR (FLAG-tagged, amino acid residues 1362 to 2549) (Homo sapiens)
Sequence (P42345 1362-2549): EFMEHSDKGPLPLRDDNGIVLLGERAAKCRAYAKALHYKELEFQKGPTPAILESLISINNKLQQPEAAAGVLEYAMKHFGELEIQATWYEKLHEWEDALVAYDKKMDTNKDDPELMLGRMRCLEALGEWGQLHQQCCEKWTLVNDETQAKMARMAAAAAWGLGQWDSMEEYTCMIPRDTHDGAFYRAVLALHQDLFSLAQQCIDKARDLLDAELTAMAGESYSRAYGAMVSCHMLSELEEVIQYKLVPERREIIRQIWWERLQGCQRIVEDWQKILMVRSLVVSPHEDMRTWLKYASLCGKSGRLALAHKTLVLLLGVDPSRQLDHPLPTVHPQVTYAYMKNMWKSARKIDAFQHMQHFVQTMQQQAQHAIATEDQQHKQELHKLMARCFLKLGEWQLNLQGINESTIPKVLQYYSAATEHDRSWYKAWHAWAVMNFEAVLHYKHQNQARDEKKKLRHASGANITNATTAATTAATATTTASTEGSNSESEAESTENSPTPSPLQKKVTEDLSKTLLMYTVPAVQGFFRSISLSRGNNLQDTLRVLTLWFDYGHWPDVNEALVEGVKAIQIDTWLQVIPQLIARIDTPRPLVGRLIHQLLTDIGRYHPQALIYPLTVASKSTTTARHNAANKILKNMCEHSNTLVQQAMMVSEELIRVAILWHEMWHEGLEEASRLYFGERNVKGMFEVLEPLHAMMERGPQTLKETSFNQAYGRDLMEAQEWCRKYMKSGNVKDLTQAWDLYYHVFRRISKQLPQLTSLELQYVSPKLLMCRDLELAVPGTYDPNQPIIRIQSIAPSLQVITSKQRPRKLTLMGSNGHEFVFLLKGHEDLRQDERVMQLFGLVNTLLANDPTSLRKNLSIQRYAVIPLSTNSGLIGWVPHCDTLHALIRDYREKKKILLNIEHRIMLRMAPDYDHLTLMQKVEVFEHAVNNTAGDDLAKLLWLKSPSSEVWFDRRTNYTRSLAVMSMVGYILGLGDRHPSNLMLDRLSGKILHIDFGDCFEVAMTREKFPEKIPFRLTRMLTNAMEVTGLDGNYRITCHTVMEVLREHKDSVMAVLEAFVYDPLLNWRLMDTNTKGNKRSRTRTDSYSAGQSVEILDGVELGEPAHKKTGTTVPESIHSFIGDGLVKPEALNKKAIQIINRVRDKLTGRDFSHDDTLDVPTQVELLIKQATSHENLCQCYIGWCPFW
Experiment: Alternative Enzyme Assay: AlphaScreen, inhibition of phosphorylation by recombinant mTOR
Format: biochemical
Settings: Alternative Enzyme Assay, upper bounds; read-out: IC50 values against mTOR
List of IC50 values.
reported.property: IC50

> print(dat)
                                    compound    value
 1  COc1ccc(-c2ccc3c(N4CCOCC4)nc(-c4cccc(CN)c4)nc3n2)cc1CO [Example 9n]   < 1 µM
 2  COc1ccc(-c2ccc3c(N4CCOCC4)nc(-c4cccc(-c5ccccc5)c4)nc3n2)cc1CO [Example 9o]  < 10 µM
 3  Clc1ccc(-c2ccc3c(N4CCOCC4)nc(-c4cccc(-c5ccccc5)c4)nc3n2)cc1 [Example 9aa]   < 1 µM
 4  COCc1cccc(-c2nc(N3CCOCC3)c3ccc(-c4ccc(Cl)cc4)nc3n2)c1 [Example 9z]  < 10 µM
 5  CC(C)CCCOc1ccc(-c2ccc3c(N4CCOCC4)nc(N4C[C@@H](C)O[C@@H](C)C4)nc3n2)cc1 [Example 1bx]  < 10 µM
 6  CCCOc1ccc(-c2ccc3c(N4CCOCC4)nc(N4C[C@@H](C)O[C@@H](C)C4)nc3n2)cc1 [Example 1bn]   < 1 µM
 7  C/C=C/COc1ccc(-c2ccc3c(N4CCOCC4)nc(N4C[C@@H](C)O[C@@H](C)C4)nc3n2)cc1 [Example 1bq]   < 1 µM
 8  O=Cc1cccc(-c2nc(N3CCOCC3)c3ccc(-c4ccc(Cl)cc4)nc3n2)c1 [Example 9w]  < 10 µM
 9  O=[N+]([O-])c1cccc(-c2nc(N3CCOCC3)c3ccc(-c4ccc(Cl)cc4)nc3n2)c1 [Example 9v]  < 10 µM
10  COc1cccc(-c2nc(N3CCOCC3)c3ccc(-c4ccc(OC)c(CO)c4)nc3n2)c1 [Example 9e]  < 10 µM
11  C[C@@H]1CN(c2nc(N3CCOCC3)c3ccc(-c4ccc(OCc5ccc(F)c(F)c5)cc4)nc3n2)C[C@H](C)O1 [Example 1bw]  < 10 µM
12  COc1ccc(-c2ccc3c(N4CCOCC4)nc(-c4cccc(C=O)c4)nc3n2)cc1CO [Example 9g]  < 10 µM
13  COc1ccc(-c2ccc3c(N4CCOCC4)nc(-c4cccc(C#N)c4)nc3n2)cc1CO [Example 9j]  < 10 µM
14  COc1ccc(-c2ccc3c(N4CCOCC4)nc(-c4cccc([N+](=O)[O-])c4)nc3n2)cc1CO [Example 9c]  < 10 µM
15  C[C@@H]1CN(c2ccc3c(N4CCOCC4)nc(-c4ccc(Cl)cc4)nc3n2)C[C@H](C)O1 [Example 9s]  < 10 µM
16  C[C@@H]1CN(c2nc(N3CCOCC3)c3ccc(-c4ccc(OCC5CCCCC5)cc4)nc3n2)C[C@H](C)O1 [Example 1bk]   < 1 µM
17  Cc1cccc(-c2nc(N3CCOCC3)c3ccc(-c4ccc(Cl)cc4)nc3n2)c1 [Example 9y]  < 10 µM
18  C[C@@H]1CN(c2nc(N3CCOCC3)c3ccc(-c4ccc(OCC(C)(C)CO)cc4)nc3n2)C[C@H](C)O1 [Example 1bp]   < 1 µM
19  COc1ccc(-c2ccc3c(N4CCOCC4)nc(-c4cccc(O)c4)nc3n2)cc1CO [Example 9i]  < 10 µM
20  COc1cccc(-c2nc(N3CCOCC3)c3ccc(-c4ccc(Cl)cc4)nc3n2)c1 [Example 9u]  < 10 µM
21  Clc1ccc(-c2ccc3c(N4CCOCC4)nc(-c4cccnc4)nc3n2)cc1 [Example 9t]  < 10 µM
22  COc1ccc(-c2ccc3c(N4CCOCC4)nc(-c4cccc(C(F)(F)F)c4)nc3n2)cc1CO [Example 9r]   < 1 µM
23  CC(Oc1ccc(-c2ccc3c(N4CCOCC4)nc(N4C[C@@H](C)O[C@@H](C)C4)nc3n2)cc1)c1ccccc1 (some centres unmarked) [Example 1bv]  < 10 µM
24  COc1ccc(-c2ccc3c(N4CCOCC4)nc(-c4cc(C(=O)O)cc([N+](=O)[O-])c4)nc3n2)cc1CO [Example 9b]  < 10 µM
25  NC(=O)c1cccc(-c2nc(N3CCOCC3)c3ccc(-c4ccc(Cl)cc4)nc3n2)c1 [Example 9ac]  < 10 µM
26  COc1ccc(-c2ccc3c(N4CCOCC4)nc(-c4cc(N)cc(C(=O)O)c4)nc3n2)cc1CO [Example 9a]  < 10 µM
